Source of measurements: ChEMBL document CHEMBL3421532

Assay: Antiproliferative activity against human NB4 cells assessed as cell growth inhibition after 48 hrs by XTT assay
Assay type: functional, cell-based
Details: NB-4, 48 h
# if measured IC50 < 30 µM: 1 (yes)  # else: 0 (no)

Data request: Below 30 µM on IC50? Entry COc1ccc(C(=O)/C(=C/c2ccc([N+](=O)[O-])cc2)CCOC(C)=O)cc1
Data returned: 0 (no)

Data request: Below 30 µM on IC50? Entry C=C(C(=O)c1ccc(OC)cc1)C(C)OC(=O)c1ccccc1 (stereo not given)
Data returned: 1 (yes)

Data request: Below 30 µM on IC50? Entry COc1ccc(C(=O)/C(=C/c2ccc(Cl)cc2Cl)CCOC(C)=O)cc1
Data returned: 0 (no)

Data request: Below 30 µM on IC50? Entry C=C(C(=O)c1ccc(OC)cc1)C(OC(C)=O)C(CC)CC (stereo not given)
Data returned: 1 (yes)

Data request: Below 30 µM on IC50? Entry COc1ccc(C(=O)/C(=C/c2ccc(Cl)cc2)CC(C)OC(C)=O)cc1 (stereo not given)
Data returned: 0 (no)

Data request: Below 30 µM on IC50? Entry C=C(C(=O)c1ccc(OC)cc1)C(O)c1ccc(Cl)cc1Cl (stereo not given)
Data returned: 1 (yes)

Data request: Below 30 µM on IC50? Entry COc1ccc(C(=O)/C(=C/C2CCCCC2)CN(C)C(=O)c2ccccc2)cc1
Data returned: 0 (no)

Data request: Below 30 µM on IC50? Entry COc1ccc(C(=O)/C(=C/c2c(F)c(F)c(F)c(F)c2F)CCOC(C)=O)cc1
Data returned: 1 (yes)

Data request: Below 30 µM on IC50? Entry COc1ccc(C(=O)/C(=C\c2ccccc2Cl)COC(=O)c2ccccc2)cc1
Data returned: 1 (yes)

Data request: Below 30 µM on IC50? Entry C=C(C(=O)c1ccc(OC)cc1)C(O)c1ccc([N+](=O)[O-])cc1 (stereo not given)
Data returned: 1 (yes)

====

Experiment: Antiproliferative activity against human NB4 cells assessed as cell growth inhibition after 48 hrs by XTT assay
Type: functional, cell-based
Conditions: NB-4, 48 h
assay-metric: IC50 (µM)
Answer with a number only, understood to be in µM.

Data request: For the compound C=C(C(=O)c1ccc(OC)cc1)C(OC(C)=O)c1ccc(Cl)cc1Cl (stereo not given) , what IC50 is on record?
Data returned: 5.4

Data request: For the compound COc1ccc(C(=O)/C(=C/c2c(F)c(F)c(F)c(F)c2F)CC(C)OC(C)=O)cc1 (stereo not given) , what IC50 is on record?
Data returned: 49

Data request: For the compound C=C(C(=O)c1ccc(OC)cc1)C(OC(=O)c1ccccc1)c1ccccc1[N+](=O)[O-] (stereo not given) , what IC50 is on record?
Data returned: 12.7

Data request: For the compound C=C(C/C(=C\c1ccc(C)cc1)C(=O)c1ccccc1)C(=O)c1ccccc1 , what IC50 is on record?
Data returned: 7.6

Data request: For the compound C=C(C(=O)c1ccc(OC)cc1)C(OC(C)=O)c1c(F)c(F)c(F)c(F)c1F (stereo not given) , what IC50 is on record?
Data returned: 12.6

Data request: For the compound C=C(C(=O)c1ccc(OC)cc1)C(OC(=O)c1ccccc1)c1ccc([N+](=O)[O-])cc1[N+](=O)[O-] (stereo not given) , what IC50 is on record?
Data returned: 10

Data request: For the compound COc1ccc(C(=O)/C(=C/c2ccc([N+](=O)[O-])cc2)CN2CCOCC2)cc1 , what IC50 is on record?
Data returned: 5.6

Data request: For the compound COc1ccc(C(=O)/C(=C/c2ccc(Cl)cc2Cl)CC2CCCCC2)cc1 , what IC50 is on record?
Data returned: 48.9

====

Tested on: NB-4
Assay: Induction of cell death in human NB4 cells assessed as elevated sub-G1 population at 10 uM after 48 hrs by flow cytometry
Type: functional, cell-based
Calls of active or inactive are those of the source. The calls are words filed in the database; no cut-off is given here.
assay-metric: Activity

Consider the following illustrative entries.
{"columns": ["compound", "tested-system", "reported-result"],
 "data": [
  ["COc1ccc(C(=O)/C(=C/c2ccc([N+](=O)[O-])cc2)CC(C)C)cc1", "NB-4", "Active"],
  ["C=C(C(=O)c1ccc(OC)cc1OC)C(OC(C)=O)c1ccc([N+](=O)[O-])cc1 (configuration not stated)", "NB-4", "Active"],
  ["C=C(C(=O)c1ccc(OC)cc1)C(O)c1ccc([N+](=O)[O-])cc1 (configuration not stated)", "NB-4", "Active"],
  ["C=C(C(=O)c1ccc(OC)cc1)C(OC(C)=O)c1ccc(Cl)cc1Cl (configuration not stated)", "NB-4", "Active"],
  ["CC(=O)OC/C(=C\\c1ccccc1F)C(=O)c1ccccc1", "NB-4", "Active"],
  ["CCN(CC)C/C(=C\\c1ccc([N+](=O)[O-])cc1)C(=O)c1ccc(OC)cc1", "NB-4", "Active"]
]}

Now, please, on to the next compound.
Data request: # get_value(readout= Activity, system= NB-4) for C=C(C/C(=C\c1ccc(OC(=O)c2ccccc2)cc1)C(=O)c1ccc(OC)cc1)C(=O)c1ccc(OC)cc1
Data returned: Active

====

Experiment: Antiproliferative activity against human NB4 cells assessed as cell growth inhibition after 48 hrs by XTT assay
Type: functional, cell-based
Settings: NB-4, 48 h
# if measured IC50 < 10 µM: Condition met  # else: Condition not met

Data request: Below 10 µM on IC50? Entry C=C(C(=O)c1ccc(OC)cc1)C(OC(=O)c1ccccc1)c1ccc(Cl)cc1Cl (stereo not given)
Data returned: Condition met

Data request: Below 10 µM on IC50? Entry C=C(C(=O)c1ccc(OC)cc1)C(OC(=O)c1ccccc1)c1ccccc1F (stereo not given)
Data returned: Condition not met

Data request: Below 10 µM on IC50? Entry C=C(C(=O)c1ccc(OC)cc1OC)C(OC(C)=O)c1ccc([N+](=O)[O-])cc1 (stereo not given)
Data returned: Condition met

Data request: Below 10 µM on IC50? Entry C=C(C(=O)c1ccc(OC)cc1)C(O)c1ccccc1F (stereo not given)
Data returned: Condition met

Data request: Below 10 µM on IC50? Entry C=C(C(=O)c1ccc(OC)cc1)C(OC(C)=O)C1CCCCC1 (stereo not given)
Data returned: Condition not met

Data request: Below 10 µM on IC50? Entry C=C(C/C(=C\c1ccc(OC(=O)c2ccccc2)cc1)C(=O)c1ccc(OC)cc1)C(=O)c1ccc(OC)cc1
Data returned: Condition met

Data request: Below 10 µM on IC50? Entry CCN(CC)C/C(=C\c1ccc([N+](=O)[O-])cc1)C(=O)c1ccc(OC)cc1
Data returned: Condition met

Data request: Below 10 µM on IC50? Entry CC(=O)OC/C(=C/c1ccc(Cl)cc1Cl)C(=O)c1ccccc1
Data returned: Condition not met

Data request: Below 10 µM on IC50? Entry COc1ccc(C(=O)/C(=C/c2ccc(C(F)(F)F)cc2)CC2CCCCC2)cc1
Data returned: Condition not met

Data request: Below 10 µM on IC50? Entry C=C(C(=O)c1ccc(OC)cc1)C(OC(=O)c1ccccc1)c1c(F)c(F)c(F)c(F)c1F (stereo not given)
Data returned: Condition not met

====

Test: Antiproliferative activity against human NB4 cells assessed as cell growth inhibition after 48 hrs by XTT assay
Type: functional, cell-based
Details: NB-4, 48 h
assay-metric: IC50 (µM)
Answer with a number only, understood to be in µM.

Data request: For the compound CCC(/C=C(\COC(=O)c1ccccc1)C(=O)c1ccc(OC)cc1)CC , what IC50 is on record?
Data returned: 26.8

Data request: For the compound COc1ccc(C(=O)/C(=C/c2ccc(Cl)cc2Cl)CN2CCOCC2)cc1 , what IC50 is on record?
Data returned: 8.5

Data request: For the compound C=C(C/C(=C\c1ccc(C)cc1)C(=O)c1ccc(OC)cc1)C(=O)c1ccc(OC)cc1 , what IC50 is on record?
Data returned: 11.4

Data request: For the compound C=C(C(=O)c1ccc(OC)cc1)C(OC(C)=O)c1ccccc1F (stereo not given) , what IC50 is on record?
Data returned: 9.5

Data request: For the compound COc1ccc(C(=O)/C(=C/c2ccc(Cl)cc2Cl)CC(C)C)cc1 , what IC50 is on record?
Data returned: 14.6

====

Experiment: Antiproliferative activity against human NB4 cells assessed as cell growth inhibition after 48 hrs by XTT assay
Format: functional, cell-based
Conditions: NB-4, 48 h
assay-metric: IC50 (µM)
Answer with a number only, understood to be in µM.

Data request: For the molecule COc1ccc(C(=O)/C(=C/c2ccccc2Cl)COC(=O)c2ccccc2)cc1 , what IC50 is on record?
Data returned: 7

Data request: For the molecule C=C(C(=O)c1ccc(OC)cc1)C(OC(=O)c1ccccc1)C(CC)CC (stereo not given) , what IC50 is on record?
Data returned: 13

Data request: For the molecule C=C(C/C(=C\c1ccc(OC(=O)c2ccccc2)cc1)C(=O)c1ccccc1)C(=O)c1ccccc1 , what IC50 is on record?
Data returned: 8

Data request: For the molecule COc1ccc(C(=O)/C(=C/C2CCCCC2)CC(C)OC(C)=O)cc1 (stereo not given) , what IC50 is on record?
Data returned: 33.4

Data request: For the molecule COc1ccc(C(=O)/C(=C/C2CCCCC2)COC(=O)c2ccccc2)cc1 , what IC50 is on record?
Data returned: 10.2

Data request: For the molecule C=C(C(=O)c1ccc(OC)cc1)C(O)c1ccccc1Cl (stereo not given) , what IC50 is on record?
Data returned: 8.1

Data request: For the molecule COc1ccc(C(=O)/C(=C/c2ccc(C(F)(F)F)cc2)CC(C)C)cc1 , what IC50 is on record?
Data returned: 12.6

Data request: For the molecule C=C(C(=O)c1ccc(OC)cc1)C(OC(=O)c1ccccc1)c1ccccc1Cl (stereo not given) , what IC50 is on record?
Data returned: 8.5

Data request: For the molecule CCC(/C=C(\CCOC(C)=O)C(=O)c1ccc(OC)cc1)CC , what IC50 is on record?
Data returned: 91.1

Data request: For the molecule CCC(/C=C(\COC(C)=O)C(=O)c1ccc(OC)cc1)CC , what IC50 is on record?
Data returned: 9.5
